Taken from ChEMBL document CHEMBL1135945.

These compounds were tested on Cruzipain (Trypanosoma cruzi, UniProt P25779); pIC50 is the recorded read-out.
Sequence (P25779 whole entry): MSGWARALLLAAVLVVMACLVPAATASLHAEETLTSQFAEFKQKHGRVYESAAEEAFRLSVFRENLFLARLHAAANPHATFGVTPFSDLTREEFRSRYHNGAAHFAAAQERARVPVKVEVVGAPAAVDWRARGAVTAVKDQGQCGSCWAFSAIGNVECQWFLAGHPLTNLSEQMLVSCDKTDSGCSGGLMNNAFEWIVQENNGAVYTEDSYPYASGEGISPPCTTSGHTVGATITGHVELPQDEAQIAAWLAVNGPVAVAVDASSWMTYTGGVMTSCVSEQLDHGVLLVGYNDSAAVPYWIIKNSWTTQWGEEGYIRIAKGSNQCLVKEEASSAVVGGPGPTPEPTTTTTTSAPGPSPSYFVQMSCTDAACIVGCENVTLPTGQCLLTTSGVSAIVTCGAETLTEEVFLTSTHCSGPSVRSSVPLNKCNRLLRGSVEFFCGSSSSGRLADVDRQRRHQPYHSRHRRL
The scale used: pIC50 is minus the common logarithm of the concentration in molar units.

{"COMPOUND STRUCTURE STRING": "O=C(N/N=C/c1ccc([N+](=O)[O-])o1)c1cc2ccccc2cc1O", "pIC50": 5.22}
{"COMPOUND STRUCTURE STRING": "O=C(N/N=C/c1ccc(-c2cccc([N+](=O)[O-])c2)o1)c1ccc2ccccc2c1", "pIC50": 5.22}
{"COMPOUND STRUCTURE STRING": "O=C(N/N=C/c1ccc(-c2ccccc2[N+](=O)[O-])o1)c1ccccc1O", "pIC50": 4.70}
{"COMPOUND STRUCTURE STRING": "O=C(N/N=C/c1ccc([N+](=O)[O-])o1)c1cccc([N+](=O)[O-])c1", "pIC50": 5.30}

Which pIC50 reading was recorded for the compound "O=C(N/N=C/c1ccc(-c2ccccc2Cl)o1)c1cc2ccccc2cc1O" ? 6.22

Which pIC50 reading was recorded for the compound "COc1ccc2cc(O)c(C(=O)N/N=C/c3ccc(-c4cc(C(F)(F)F)nn4C)s3)cc2c1" ? 6.70

Which pIC50 reading was recorded for the compound "O=C(N/N=C/c1ccc(-c2ccc(Cl)cc2)o1)c1ccccc1O" ? 4.00
